# assay-text: refractive index (Na D-line) (dimensionless)
# test-conditions: 333.15 K; 101.33 kPa; Liquid; Standard Abbe refractometry
reported-property: refractive index

> print(dat)
                                   compound  reported.property    value
1  CCCCCCCCCCCCCC[P+](CCCCCC)(CCCCCC)CCCCCC.CS(=O)(=O)[O-] [trihexyltetradecylphosphonium methanesulfonate]   refractive index  1.46217
2  CCCCCCCCCCCCCC[P+](CCCCCC)(CCCCCC)CCCCCC.N#C[N-]C#N [tetradecyl(trihexyl)phosphonium dicyanamide]   refractive index  1.47252
3  CC(CC(C)(C)C)CP(=O)([O-])CC(C)CC(C)(C)C.CCCCCCCCCCCCCC[P+](CCCCCC)(CCCCCC)CCCCCC   refractive index  1.46056
4  CCCCCCCCCC(=O)[O-].CCCCCCCCCCCCCC[P+](CCCCCC)(CCCCCC)CCCCCC [trihexyltetradecylphosphonium decanoate]   refractive index  1.46002
5  CCCCCCCCCCCCCC[P+](CCCCCC)(CCCCCC)CCCCCC.[Br-] [tetradecyltrihexylphosphonium bromide]   refractive index  1.47834
6  CCCCCCCCCCCCCC[P+](CCCCCC)(CCCCCC)CCCCCC.[Cl-] [trihexyl(tetradecyl)phosphonium chloride]   refractive index  1.47029
7  CCCCCCCCCCCCCC[P+](CCCCCC)(CCCCCC)CCCCCC.O=S(=O)([N-]S(=O)(=O)C(F)(F)F)C(F)(F)F   refractive index  1.43836

---

Overview of recorded refractive index for various compounds
# assay-text: refractive index (Na D-line) (dimensionless)
# test-conditions: 303.15 K; 101.33 kPa; Liquid; Standard Abbe refractometry
reported-property: refractive index

> print(dat)
                                   compound    value
1  CCCCCCCCCCCCCC[P+](CCCCCC)(CCCCCC)CCCCCC.O=S(=O)([N-]S(=O)(=O)C(F)(F)F)C(F)(F)F  1.44797
2  CCCCCCCCCC(=O)[O-].CCCCCCCCCCCCCC[P+](CCCCCC)(CCCCCC)CCCCCC [trihexyltetradecylphosphonium decanoate]  1.47069
3  CC(CC(C)(C)C)CP(=O)([O-])CC(C)CC(C)(C)C.CCCCCCCCCCCCCC[P+](CCCCCC)(CCCCCC)CCCCCC  1.47044
4  CCCCCCCCCCCCCC[P+](CCCCCC)(CCCCCC)CCCCCC.[Cl-] [trihexyl(tetradecyl)phosphonium chloride]  1.48142
5  CCCCCCCCCCCCCC[P+](CCCCCC)(CCCCCC)CCCCCC.[Br-] [tetradecyltrihexylphosphonium bromide]  1.48814
6  CCCCCCCCCCCCCC[P+](CCCCCC)(CCCCCC)CCCCCC.N#C[N-]C#N [tetradecyl(trihexyl)phosphonium dicyanamide]  1.48228
7  CCCCCCCCCCCCCC[P+](CCCCCC)(CCCCCC)CCCCCC.CS(=O)(=O)[O-] [trihexyltetradecylphosphonium methanesulfonate]  1.47186

---

Documented refractive index across a set of molecules
# assay-text: refractive index (Na D-line) (dimensionless)
# test-conditions: 283.15 K; 101.33 kPa; Liquid; Standard Abbe refractometry
Numbers after ± are expanded uncertainties.
reported-property: refractive index

> print(dat)
                                   molecule  reported.property              value
1  CCCCCCCCCCCCCC[P+](CCCCCC)(CCCCCC)CCCCCC.O=S(=O)([N-]S(=O)(=O)C(F)(F)F)C(F)(F)F   refractive index  1.45436 ± 0.00037
2  CCCCCCCCCC(=O)[O-].CCCCCCCCCCCCCC[P+](CCCCCC)(CCCCCC)CCCCCC [trihexyltetradecylphosphonium decanoate]   refractive index  1.47754 ± 0.00037
3  CCCCCCCCCCCCCC[P+](CCCCCC)(CCCCCC)CCCCCC.N#C[N-]C#N [tetradecyl(trihexyl)phosphonium dicyanamide]   refractive index  1.48861 ± 0.00037
4  CC(CC(C)(C)C)CP(=O)([O-])CC(C)CC(C)(C)C.CCCCCCCCCCCCCC[P+](CCCCCC)(CCCCCC)CCCCCC   refractive index  1.47702 ± 0.00037
5  CCCCCCCCCCCCCC[P+](CCCCCC)(CCCCCC)CCCCCC.CS(=O)(=O)[O-] [trihexyltetradecylphosphonium methanesulfonate]   refractive index  1.47813 ± 0.00037
6  CCCCCCCCCCCCCC[P+](CCCCCC)(CCCCCC)CCCCCC.[Cl-] [trihexyl(tetradecyl)phosphonium chloride]   refractive index  1.48794 ± 0.00037
7  CCCCCCCCCCCCCC[P+](CCCCCC)(CCCCCC)CCCCCC.[Br-] [tetradecyltrihexylphosphonium bromide]   refractive index  1.49456 ± 0.00037

---

# reported refractive index; entries follow
# assay-text: refractive index (Na D-line) (dimensionless)
# test-conditions: 353.15 K; 101.33 kPa; Liquid; Standard Abbe refractometry
reported-property: refractive index

> print(dat)
                                   compound  reported.property    value
1  CCCCCCCCCCCCCC[P+](CCCCCC)(CCCCCC)CCCCCC.[Br-] [tetradecyltrihexylphosphonium bromide]   refractive index  1.47189
2  CCCCCCCCCCCCCC[P+](CCCCCC)(CCCCCC)CCCCCC.N#C[N-]C#N [tetradecyl(trihexyl)phosphonium dicyanamide]   refractive index  1.46599
3  CCCCCCCCCCCCCC[P+](CCCCCC)(CCCCCC)CCCCCC.[Cl-] [trihexyl(tetradecyl)phosphonium chloride]   refractive index   1.4634
4  CCCCCCCCCCCCCC[P+](CCCCCC)(CCCCCC)CCCCCC.CS(=O)(=O)[O-] [trihexyltetradecylphosphonium methanesulfonate]   refractive index  1.45572
5  CCCCCCCCCCCCCC[P+](CCCCCC)(CCCCCC)CCCCCC.O=S(=O)([N-]S(=O)(=O)C(F)(F)F)C(F)(F)F   refractive index  1.43213
6  CCCCCCCCCC(=O)[O-].CCCCCCCCCCCCCC[P+](CCCCCC)(CCCCCC)CCCCCC [trihexyltetradecylphosphonium decanoate]   refractive index  1.45327
7  CC(CC(C)(C)C)CP(=O)([O-])CC(C)CC(C)(C)C.CCCCCCCCCCCCCC[P+](CCCCCC)(CCCCCC)CCCCCC   refractive index  1.45387

---

# assay-text: refractive index (Na D-line) (dimensionless)
# test-conditions: 348.15 K; 101.33 kPa; Liquid; Standard Abbe refractometry
reported-property: refractive index

> print(dat)
                                   compound    value
1  CCCCCCCCCC(=O)[O-].CCCCCCCCCCCCCC[P+](CCCCCC)(CCCCCC)CCCCCC [trihexyltetradecylphosphonium decanoate]  1.45497
2  CCCCCCCCCCCCCC[P+](CCCCCC)(CCCCCC)CCCCCC.CS(=O)(=O)[O-] [trihexyltetradecylphosphonium methanesulfonate]  1.45727
3  CCCCCCCCCCCCCC[P+](CCCCCC)(CCCCCC)CCCCCC.[Br-] [tetradecyltrihexylphosphonium bromide]  1.47346

---

# assay-text: refractive index (Na D-line) (dimensionless)
# test-conditions: 298.15 K; 101.33 kPa; Liquid; Standard Abbe refractometry
Recorded refractive index for the following compounds
reported-property: refractive index

> print(dat)
                                   compound  reported.property    value
1  CC(CC(C)(C)C)CP(=O)([O-])CC(C)CC(C)(C)C.CCCCCCCCCCCCCC[P+](CCCCCC)(CCCCCC)CCCCCC   refractive index  1.47209
2  CCCCCCCCCCCCCC[P+](CCCCCC)(CCCCCC)CCCCCC.O=S(=O)([N-]S(=O)(=O)C(F)(F)F)C(F)(F)F   refractive index   1.4496
3  CCCCCCCCCCCCCC[P+](CCCCCC)(CCCCCC)CCCCCC.[Cl-] [trihexyl(tetradecyl)phosphonium chloride]   refractive index  1.48309
4  CCCCCCCCCCCCCC[P+](CCCCCC)(CCCCCC)CCCCCC.N#C[N-]C#N [tetradecyl(trihexyl)phosphonium dicyanamide]   refractive index  1.48387

---

# assay-text: refractive index (Na D-line) (dimensionless)
# test-conditions: 313.15 K; 101.33 kPa; Liquid; Standard Abbe refractometry
Recorded refractive index values for a group of compounds are listed next.
reported-property: refractive index

> print(dat)
                                   compound    value
1  CC(CC(C)(C)C)CP(=O)([O-])CC(C)CC(C)(C)C.CCCCCCCCCCCCCC[P+](CCCCCC)(CCCCCC)CCCCCC  1.46712
2  CCCCCCCCCC(=O)[O-].CCCCCCCCCCCCCC[P+](CCCCCC)(CCCCCC)CCCCCC [trihexyltetradecylphosphonium decanoate]  1.46722
3  CCCCCCCCCCCCCC[P+](CCCCCC)(CCCCCC)CCCCCC.O=S(=O)([N-]S(=O)(=O)C(F)(F)F)C(F)(F)F  1.44476
4  CCCCCCCCCCCCCC[P+](CCCCCC)(CCCCCC)CCCCCC.[Cl-] [trihexyl(tetradecyl)phosphonium chloride]  1.47796
5  CCCCCCCCCCCCCC[P+](CCCCCC)(CCCCCC)CCCCCC.N#C[N-]C#N [tetradecyl(trihexyl)phosphonium dicyanamide]  1.47902
6  CCCCCCCCCCCCCC[P+](CCCCCC)(CCCCCC)CCCCCC.CS(=O)(=O)[O-] [trihexyltetradecylphosphonium methanesulfonate]  1.46865
7  CCCCCCCCCCCCCC[P+](CCCCCC)(CCCCCC)CCCCCC.[Br-] [tetradecyltrihexylphosphonium bromide]   1.4849
